# measured on: Ataxin-2 (Homo sapiens) (UniProt Q99700)
# Sequence (Q99700 whole entry): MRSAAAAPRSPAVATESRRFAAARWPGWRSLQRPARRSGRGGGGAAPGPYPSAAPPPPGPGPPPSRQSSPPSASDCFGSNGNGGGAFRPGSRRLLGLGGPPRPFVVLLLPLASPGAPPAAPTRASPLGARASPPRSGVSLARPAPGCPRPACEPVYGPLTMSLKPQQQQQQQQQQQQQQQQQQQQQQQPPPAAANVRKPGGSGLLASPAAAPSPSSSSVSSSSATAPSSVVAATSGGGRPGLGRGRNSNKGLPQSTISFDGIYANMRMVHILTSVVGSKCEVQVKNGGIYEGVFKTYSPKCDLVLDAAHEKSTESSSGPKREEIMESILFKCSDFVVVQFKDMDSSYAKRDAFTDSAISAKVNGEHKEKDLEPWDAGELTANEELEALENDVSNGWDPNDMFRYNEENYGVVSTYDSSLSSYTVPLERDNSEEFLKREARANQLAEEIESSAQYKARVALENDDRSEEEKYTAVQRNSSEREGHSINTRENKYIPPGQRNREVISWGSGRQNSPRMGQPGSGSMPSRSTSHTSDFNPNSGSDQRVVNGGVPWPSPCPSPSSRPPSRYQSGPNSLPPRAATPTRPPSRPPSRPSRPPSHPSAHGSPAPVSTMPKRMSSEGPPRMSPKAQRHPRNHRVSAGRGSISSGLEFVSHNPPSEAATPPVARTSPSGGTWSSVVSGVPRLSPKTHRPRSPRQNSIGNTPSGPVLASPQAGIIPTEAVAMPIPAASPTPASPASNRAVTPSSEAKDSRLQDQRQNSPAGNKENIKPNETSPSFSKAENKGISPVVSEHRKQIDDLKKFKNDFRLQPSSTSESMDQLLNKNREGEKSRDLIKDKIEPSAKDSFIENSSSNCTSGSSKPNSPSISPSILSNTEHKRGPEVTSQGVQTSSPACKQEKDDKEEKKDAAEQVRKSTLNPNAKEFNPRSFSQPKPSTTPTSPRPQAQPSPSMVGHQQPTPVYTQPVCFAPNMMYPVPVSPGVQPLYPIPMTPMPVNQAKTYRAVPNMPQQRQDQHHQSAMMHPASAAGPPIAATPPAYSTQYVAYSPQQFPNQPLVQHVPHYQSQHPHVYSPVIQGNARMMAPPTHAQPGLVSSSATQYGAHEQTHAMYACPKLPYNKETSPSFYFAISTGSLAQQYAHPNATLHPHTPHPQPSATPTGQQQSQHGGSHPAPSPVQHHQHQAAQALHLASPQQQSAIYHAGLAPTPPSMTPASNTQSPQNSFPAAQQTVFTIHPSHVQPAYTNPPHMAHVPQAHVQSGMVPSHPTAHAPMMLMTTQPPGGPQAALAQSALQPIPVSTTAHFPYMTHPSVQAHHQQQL
# procedure details: qHTS for Inhibitors of ATXN expression.
# Assay type: functional
Hit rate of the full screen: of about 400,000 compounds, about 2,100 (0.53%) were called active. Another 14% or so got no clear call; they are omitted. No rule for the calls is given here. The full list was thinned out, with actives kept by preference.
Select the matching outcome among yes (1) (active), no (0) (inactive)

                                   compound  discrete_label
0  CN(C)CC1CC/C(=C\c2ccc(O)cc2)C1=O (configuration not stated)         yes (1)
1  O=C(OCCOc1ccccc1Cl)c1cc(S(=O)(=O)N2CCCCC2)ccc1N1CCOCC1          no (0)
2  NC(COCc1ccccc1)c1csc(NC(=O)Nc2cccc(C(F)(F)F)c2)n1 (configuration not stated)         yes (1)
3      Cc1cc(Br)ccc1NC(=O)CNC(=O)c1cnn(C)c1          no (0)

Prompt: Write down the call the test reported for this compound. Item: O=c1cc(CN2CCOCC2)c2cc(Cl)c(O)cc2o1
Completion: no (0)

Prompt: How about Cc1ccc(C2C=C(c3ccc4c(c3)OCO4)Nc3ncnn32)cc1 (configuration not stated) ?
Completion: no (0)

Prompt: How about Clc1cccc(Nc2nc(-c3ccncc3)cs2)c1 ?
Completion: no (0)

Prompt: How about CC1CN(Cc2cc(=O)oc3cc(O)c(Cl)cc23)CC(C)O1 (configuration not stated) ?
Completion: no (0)

Prompt: How about CCOc1ccccc1NC(=O)C1CCC(CNc2c(N3CCCCC3)c(=O)c2=O)CC1 (configuration not stated) ?
Completion: no (0)

Prompt: How about O=C(CCCC(=O)NNC(=O)Nc1ccccc1)NNC(=O)Nc1ccccc1 ?
Completion: no (0)

Prompt: How about CCCC(C)NC(=O)c1cc(S(=O)(=O)N2CCCCCC2)ccc1OC (configuration not stated) ?
Completion: no (0)

Prompt: How about Cc1nnc(N2CCCC(C(=O)NCCN(C)C)C2)c2nn(-c3ccccc3)c(C)c12 (configuration not stated) ?
Completion: yes (1)

Prompt: How about Cc1nc2ccc(C(=O)Nc3cccc(OCC(=O)N(C)C)c3)cn2c1N(C)CC1CCCCC1 ?
Completion: yes (1)

Prompt: How about O=C(CCl)N(c1ccccc1)c1ccccc1 ?
Completion: yes (1)

Prompt: How about Cc1cc(C)nc(-n2nc(C)c3c2NC(=O)CC3c2ccccc2OC(C)C)n1 (configuration not stated) ?
Completion: yes (1)

Just for reference, ChEMBL document CHEMBL1201862 is where these values come from.
